# Tested on: SF-268
# assayName: NCI tumour cell line growth inhibition, 48 h
The source made the active and inactive calls. No stated cut-off is given here; in the data, active = GI50 up to about 1.1 µM and inactive = higher.
Each entry below lists one item and its recorded GI50 value.
propertyMeasured: GI50

compound | measurement
CC[C@@H]1/C=C/C=C/C[C@H](C)[C@@H](O)[C@](C)(O)C(=O)[C@H](C)[C@@H](O)[C@H](C)C(=O)[C@H](C)[C@@H](O)[C@H](C)/C=C/C(=O)O[C@H]2[C@@H](C)[C@@H](CC1)O[C@@]1(CC[C@@H](C)[C@@H](CC(C)O)O1)[C@@H]2C (some centres undefined) | 2.7 µM (inactive)
O=C(Cc1nccc2c1[nH]c1ccccc12)OC1C#CCSCC#C/C=C\1 (centres undefined) | > 100 µM (inactive)
O=c1c(Br)cc2c(-c3ccccc3)c3cc(Br)c(O)c(Br)c3oc-2c1Br | > 100 µM (inactive)
O=C(CSc1nnc(-c2ccc(/N=C\c3ccc(Cl)cc3)cc2)o1)Nc1ccc(Cl)cc1 | > 100 µM (inactive)
Clc1ccc(-c2ccc(-c3nnc(COc4ccc(OCc5nnc(-c6ccc(-c7ccc(Cl)cc7Cl)o6)o5)c(Cl)c4)o3)o2)c(Cl)c1 | 56.1 µM (inactive)
COc1ccc(N[S+]([O-])CCc2ccccc2)cc1 (centres undefined) | > 100 µM (inactive)
COC(=O)C(CC(C)C)NC(=O)C(NC(=O)c1ccc(-c2ccc(Cl)cc2Cl)o1)C(C)C (centres undefined) | 22 µM (inactive)
CC(=O)N1c2ccccc2[C@H]2CCc3c([nH]c4ccccc34)[C@H]21 | 15.4 µM (inactive)
CCc1n[nH]c(=O)n1N=C(c1ccccc1)c1ccccc1 | > 100 µM (inactive)
O=C(CN1c2ccccc2Sc2ccccc21)N1CCNCC1 | > 100 µM (inactive)
CN(C)CC1=Nc2cccc3cccc(c23)N1 | 18.9 µM (inactive)
O=C(CC1(O)C(=O)Nc2c(Cl)cc(Cl)cc21)c1ccc([N+](=O)[O-])cc1 (centres undefined) | > 50.8 µM (inactive)
COC(=O)c1ccc(-c2nc(C#N)c(N)o2)cc1 | 37.7 µM (inactive)
CCCCC1C=Cn2c(=O)oc3c(OC(C)C)c(C)c(O)c1c32 (centres undefined) | 0.796 µM (active)
C=C(CC(=O)Nc1ccc(C(=O)OC)o1)C(=O)OC | 36.6 µM (inactive)
CC12CC(c3ccccc3O1)C(C(=O)Nc1ccc(F)cc1)C(=O)N2 (centres undefined) | > 100 µM (inactive)
O=c1cc(/N=N\c2ccc(Cl)cc2)[nH]c(=O)[nH]1 | 4.61 µM (inactive)
COCc1cc2c(cc1/C(=C/[N+](=O)[O-])CS(=O)(=O)c1ccccc1)OCO2 | > 100 µM (inactive)
CC[S+](C)c1ccc(-c2c3nc(c(-c4ccc([S+](C)CC)cc4)c4ccc([nH]4)c(-c4ccc([S+](C)CC)cc4)c4nc(c(-c5ccc([S+](C)CC)cc5)c5ccc2[nH]5)C=C4)C=C3)cc1.[O-][Cl+3]([O-])([O-])[O-].[O-][Cl+3]([O-])([O-])[O-].[O-][Cl+3]([O-])([O-])[O-].[O-][Cl+3]([O-])([O-])[O-] (centres undefined) | 21.8 µM (inactive)
O=[N+]([O-])c1ccc2nc(/C(=N/Nc3ccccc3)C(O)c3ccc(Cl)cc3Cl)c(O)nc2c1 (centres undefined) | > 100 µM (inactive)
CN(C)CCN1C(=O)N(CCN(C)C)c2c3cc(O)ccc3nc3c([N+](=O)[O-])ccc1c23 | 8.47 µM (inactive)
O=c1c2c(no[n+]2[O-])c2ccccc2n1-c1ccccc1 | 8.22 µM (inactive)
O=C1C2Cc3ccccc3CN2C(=O)N1CCN1CCOCC1 (centres undefined) | > 100 µM (inactive)
C[C@]12Cc3cnn(-c4ccc(F)cc4)c3NC1CC[C@@H]1C2CC[C@@]2(C)C1CC[C@@H]2O (some centres undefined) | 10.1 µM (inactive)

###

Each entry below lists one item and its recorded GI50 value.
# Tested on: OVCAR-4
# assayName: NCI tumour cell line growth inhibition, 48 h
Activity calls are given as the source filed them. No stated cut-off is given here; in the data, active = GI50 up to about 1.1 µM and inactive = higher.

compound | GI50
COc1cc2c(c(OC)c1OC)C(=O)NCCC2 | > 100 µM (inactive)
CC12CC(c3ccccc3O1)C(C(=O)Nc1ccc(F)cc1)C(=O)N2 (stereo unspecified) | 51.9 µM (inactive)
COc1cccc(N(CN2C(=O)CCC2OC)C(C)=O)c1 (stereo unspecified) | > 100 µM (inactive)
c1ccc(CCc2cccnc2)nc1 | > 100 µM (inactive)
CCCCCCCCCCCCCC(=O)OC(/C=C/C(C)C)C(O)C(O)C(OC)C(=O)NC1CCCCNC1=O (stereo unspecified) | 1.86 µM (inactive)
O=C(COC(=O)c1cccc2c(=O)c3ccccc3[nH]c12)Nc1ccccc1 | 45.6 µM (inactive)
Nc1nc(-[n+]2ccc(-c3ccncc3)cc2)nc(Cl)c1Cl | > 100 µM (inactive)
Cn1c(=O)nc2n(-c3ccc(Cl)cc3)c(-c3ccccc3)c(-c3ccccc3)nc-2c1=O | 29.5 µM (inactive)
CCCCCCCCCCCCCC(=O)OC1C(CO)OC(=O)C1O (stereo unspecified) | > 100 µM (inactive)
CN(C)CCC(/C=C/c1ccccc1)=N\Nc1ccc(Cl)cc1 | 5.21 µM (inactive)
CN(C)CC(O)CNC(=O)Nc1ccccc1 (stereo unspecified) | > 100 µM (inactive)

###

# Tested on: MOLT-4
# assayName: NCI tumour cell line growth inhibition, 48 h
Calls of active or inactive are those of the source. Cut-off read from the data, not from the text of the source: active = GI50 up to about 1.1 µM and inactive = higher.

molecule | GI50
O=C1C=CC(=O)c2cc(Sc3ccccc3)c(=O)ccc21 | 2.24 µM (inactive)
COc1c(C)c(C/C=C(\C)CC/C=C(\C)CCC=C(C)C)c(OC)c(OC)c1OC | 91.4 µM (inactive)
N#CCN1c2ccccc2CCC1Cl (stereo unspecified) | > 10 µM (inactive)
CC1C2Cc3ccc(O)cc3C1(C)CCN2C (stereo unspecified) | > 100 µM (inactive)
CCOP(=O)(OCC)C(c1ccccc1)N(C(=O)NC(F)(F)F)c1ccc(C)cc1 (stereo unspecified) | > 100 µM (inactive)
CCCCCCCCCCCCCC(=O)OC1C(O)C(CO)OC(OC)C1NC(=O)N(CCCl)N=O (stereo unspecified) | 17.3 µM (inactive)
N#C/C(=C/c1cccnc1)C(=O)c1ccccc1 | > 100 µM (inactive)
Nc1nc(Cl)nc(NCc2ccccc2)n1 | > 100 µM (inactive)
COc1ccc(C2C3=C(COC3=O)OC(C)(C)Oc3cc4c(cc32)OCO4)cc1 (stereo unspecified) | 23.3 µM (inactive)
CC(O)[C@@]1(c2ccccc2)CC2(CCN(C)CC2)O[C@H]1C (stereo partly specified) | > 100 µM (inactive)
Cc1ccc(NC(=O)OCC(COc2ccc(Cl)cc2)OC(=O)Nc2ccc(C)cc2)cc1 (stereo unspecified) | 16.2 µM (inactive)

###

# Test system: T47D
# assayName: NCI tumour cell line growth inhibition, 48 h
Active and inactive are the calls of the source. Rule as the data show it: active = GI50 up to about 1.1 µM and inactive = higher.
Each entry below lists one item and its recorded GI50 value.
propertyMeasured: GI50

compound | propertyMeasured | measurement
OCC1NC(CO)C(O)C1O (configuration not stated) | GI50 | > 100 µM (inactive)
CCCCCCCCCc1nn2c(Cc3ccccc3)nnc2s1 | GI50 | 24.7 µM (inactive)
S=C(N/N=C(\c1ccccc1)c1ccccn1)NC1CCCCC1 | GI50 | 3.48 µM (inactive)
CCCCN(CCCC)CC(=O)c1ccc2cc(Cl)c3ccccc3c2c1 | GI50 | 17.7 µM (inactive)
C1CSCCSCSCCS1 | GI50 | > 100 µM (inactive)
CC1CC(N)=C(C#N)C1(C#N)C#N (configuration not stated) | GI50 | > 100 µM (inactive)
C[C@@H](CO)C1=CC(C#C[Si](C)(C)C)N(C(=O)Oc2ccccc2)c2ccccc21 (some centres not stated) | GI50 | 18.2 µM (inactive)

###

# Tested on: SK-MEL-5
# assayName: NCI tumour cell line growth inhibition, 48 h
The source made the active and inactive calls. Cut-off read from the data, not from the text of the source: active = GI50 up to about 1.1 µM and inactive = higher.
Labels: label 1 (active), label 0 (inactive)

compound | qualitativeLabel
Cn1cnc2c(sc3nc4ccccc4n32)c1=N | label 0
CC(C(=O)NCNC(=O)c1ccccc1)C(=O)Nc1ccccc1 (stereo unspecified) | label 0
CC(N/N=C(\S)N1CCN(c2ccccn2)CC1)c1nccc2ccccc12 (stereo unspecified) | label 1
Cc1cc2c(cc1C)[n+]([O-])c(C#N)c(Cl)[n+]2[O-] | label 0
N/N=c1\c2ccccc2c2cc3c(cc12)/c(=N/N)c1ccccc13 | label 0
CCOC(=O)C1(O)C(=O)C2=C3C(=O)OC(C4OC(=O)c5c(c(O)c(O)c(O)c5C31)-c1c(cc(O)c(O)c1O)C(=O)OC1COC(=O)c3cc(O)c(O)c(O)c3-c3c(cc(O)c(O)c3O)C(=O)OC14)[C@@H]2O (stereo partly specified) | label 0
N=S(=O)(c1ccccc1)c1ccccc1[N+](=O)[O-] (stereo unspecified) | label 0
CC12CCC(C1)C(C)(C)C2OC(=O)c1ccccc1C(=O)O (stereo unspecified) | label 0
COc1ccc(-c2cc(=O)c3c(O)c(O)c(OC)cc3o2)cc1O | label 0
Cn1ccnc1Cn1cc(-c2cccc(-c3cn[nH]c3)c2)cn1 | label 0
CC12CC(c3ccccc3O1)C(C(=O)Nc1ccc(Cl)cc1Cl)C(=O)N2 (stereo unspecified) | label 0
